All values here come from ChEMBL document CHEMBL1201862.

// reported IC50 per item
STUDY TARGET: Hepatocyte nuclear factor 4-alpha (Homo sapiens, UniProt P41235);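 further: biochemical luminescence-based dose-response counterscreen measuring inhibition of HNF4 dimerization, run alongside a screen for blockers of ABHD5–perilipin-5 interaction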;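 further: split luciferase complementation of HNF4 fusion proteins in cell lysate measuring dimerization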
Sequence (P41235 whole entry, the tested form may be a part): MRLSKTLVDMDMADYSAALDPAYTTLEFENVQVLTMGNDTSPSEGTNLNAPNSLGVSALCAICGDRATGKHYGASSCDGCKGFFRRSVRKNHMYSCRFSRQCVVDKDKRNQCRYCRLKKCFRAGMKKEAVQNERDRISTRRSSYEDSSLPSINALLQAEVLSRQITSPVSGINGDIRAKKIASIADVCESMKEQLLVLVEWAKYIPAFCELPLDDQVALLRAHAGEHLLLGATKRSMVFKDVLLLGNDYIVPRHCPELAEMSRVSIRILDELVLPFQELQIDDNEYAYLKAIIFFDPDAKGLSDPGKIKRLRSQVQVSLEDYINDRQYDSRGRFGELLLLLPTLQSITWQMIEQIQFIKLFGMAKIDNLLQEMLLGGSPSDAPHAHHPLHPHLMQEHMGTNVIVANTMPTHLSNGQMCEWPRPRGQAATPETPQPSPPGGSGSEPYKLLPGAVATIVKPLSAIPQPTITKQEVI
Format: functional, cell-based
Activity calls are given as the source filed them.
MEASUREMENT NAME: IC50

{"MOLECULE": "Oc1c(C(c2ccccc2)N2CCCCC2)ccc2ccccc12 (centres undefined)", "STUDY TARGET": "Hepatocyte nuclear factor 4-alpha (Homo sapiens, UniProt P41235)", "RESULT": "828 nM (active)"}
{"MOLECULE": "O=C(NCc1ccccc1)C(c1cccc2ccccc12)n1c(=O)c(-c2ccco2)nc2ccccc21 (centres undefined)", "STUDY TARGET": "Hepatocyte nuclear factor 4-alpha (Homo sapiens, UniProt P41235)", "RESULT": "2770 nM (active)"}
{"MOLECULE": "CC(C)(C)NC(=O)C(c1ccnc2ccccc12)n1c(=O)c(-c2ccco2)nc2ccccc21 (centres undefined)", "STUDY TARGET": "Hepatocyte nuclear factor 4-alpha (Homo sapiens, UniProt P41235)", "RESULT": "3180 nM (active)"}
{"MOLECULE": "Oc1nc(/C=C/c2ccc(Cl)cc2Cl)cc(C(F)(F)F)n1", "STUDY TARGET": "Hepatocyte nuclear factor 4-alpha (Homo sapiens, UniProt P41235)", "RESULT": "4570 nM (active)"}

* * *

These molecules were tested on Cytochrome P450 1A2 (Homo sapiens); AC50 is the recorded read-out.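 Further: PubChem cytochrome P450 panel assay, CYP1A2 panel member.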
Sequence (P05177 whole entry): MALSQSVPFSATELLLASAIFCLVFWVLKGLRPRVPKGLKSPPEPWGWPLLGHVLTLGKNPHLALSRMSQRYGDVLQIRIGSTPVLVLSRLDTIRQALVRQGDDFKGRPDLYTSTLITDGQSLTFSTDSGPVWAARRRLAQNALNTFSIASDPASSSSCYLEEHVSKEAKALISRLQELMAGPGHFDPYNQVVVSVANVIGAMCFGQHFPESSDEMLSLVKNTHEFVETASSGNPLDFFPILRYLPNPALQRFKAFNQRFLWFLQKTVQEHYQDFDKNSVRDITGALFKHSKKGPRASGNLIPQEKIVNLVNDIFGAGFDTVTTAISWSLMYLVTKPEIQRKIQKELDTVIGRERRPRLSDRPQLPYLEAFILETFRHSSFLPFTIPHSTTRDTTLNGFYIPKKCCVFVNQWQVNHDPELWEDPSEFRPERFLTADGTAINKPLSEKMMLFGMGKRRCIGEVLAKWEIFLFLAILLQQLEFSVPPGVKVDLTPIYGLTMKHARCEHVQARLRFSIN
MEASUREMENT NAME: AC50

{"SMILES": "O=c1[nH]c2ccccc2/c(=N\\S(=O)(=O)c2ccc(Cl)cc2)n1-c1ccccc1", "RESULT": "8.91 µM (inconclusive)"}
{"SMILES": "COc1ccc(-n2nnnc2-c2cn(C)nc2C(F)(F)F)cc1", "RESULT": "25.1 µM (inconclusive)"}
{"SMILES": "O=c1[nH]c(=S)[nH]c(-c2ccccc2)c1Cc1c(O)ccc2ccccc12", "RESULT": "1 µM (inconclusive)"}
{"SMILES": "c1ccc2c(CSc3nnc(-c4ccncc4)o3)cccc2c1", "RESULT": "3.16 µM (inconclusive)"}
{"SMILES": "O=C(c1cnccn1)N1CCC2(CCCN(C(c3ccccc3)c3ccccc3)C2)CC1", "RESULT": "20 µM (inconclusive)"}
{"SMILES": "CCCN[C@@H](C)C(=O)Nc1c(C)csc1C(=O)OC", "RESULT": "12.6 µM (inconclusive)"}

* * *

These compounds were tested on UniProtKB P04406; IC50 is the recorded read-out.
Sequence (P04406 whole entry): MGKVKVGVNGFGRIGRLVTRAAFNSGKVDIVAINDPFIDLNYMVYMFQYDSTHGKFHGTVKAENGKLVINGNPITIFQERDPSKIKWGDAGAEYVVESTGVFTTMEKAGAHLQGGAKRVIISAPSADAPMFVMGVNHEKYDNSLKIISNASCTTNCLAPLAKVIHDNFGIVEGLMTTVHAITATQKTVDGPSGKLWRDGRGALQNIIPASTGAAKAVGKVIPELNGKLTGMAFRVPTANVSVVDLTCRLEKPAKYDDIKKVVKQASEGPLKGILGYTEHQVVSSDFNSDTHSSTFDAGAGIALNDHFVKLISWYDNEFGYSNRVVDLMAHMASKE

{"SMILES": "CN(C)C1=C(Cl)C(=O)N(c2cccc(C(F)(F)F)c2)C1=O", "IC50": "> 50 µM (inconclusive)"}
{"SMILES": "c1ccc(CSc2nnc(-c3ccco3)c(-c3ccco3)n2)cc1", "IC50": "> 100 µM (not active)"}
{"SMILES": "COc1cc(S(=O)(=O)Nc2cccnc2)c(OC)cc1Cl", "IC50": "> 100 µM (not active)"}
{"SMILES": "Cc1ccc(C2=NC(=O)/C(=C/C=C/c3ccc([N+](=O)[O-])o3)S2)cc1", "IC50": "> 100 µM (not active)"}

* * *

STUDY TARGET: Prothrombin (Homo sapiens, UniProt P00734)
PROCEDURE TEXT: Thrombin 1536 HTS Dose Response Confirmation. [Related pubchem assays: 1046 (Thrombin 1536 HTS; hits were confirmed in this assay)]
Format: functional
The source made the active and inactive calls.

{"MOLECULE": "C=CCn1c(SCc2c(C)noc2C)nc2cc(C(=O)O)ccc2c1=O", "IC50": "> 50 µM (not active)"}
{"MOLECULE": "CCc1nc2ccccc2c(C(=O)OCC(=O)C(C)(C)C)c1C", "IC50": "> 50 µM (not active)"}
{"MOLECULE": "Cc1cc(C)cc(OCC(=O)NNC(=O)CN2C(=O)c3ccccc3C2=O)c1", "IC50": "> 50 µM (not active)"}
{"MOLECULE": "CC(C)c1ccc(NC(S)=Nc2ccc3c[nH]nc3c2)cc1", "IC50": "2.49 µM (active)"}
{"MOLECULE": "CCC(C(=O)OCC(=O)Nc1ccc(SC(F)F)cc1)c1ccccc1 (stereo not drawn)", "IC50": "> 50 µM (not active)"}
{"MOLECULE": "Nc1nc(-c2ccco2)nn1C(=O)c1ccc(Cl)cc1", "IC50": "1.46 µM (active)"}
{"MOLECULE": "COc1ccccc1C(=O)n1nc(-c2ccco2)nc1N", "IC50": "6.93 µM (active)"}
{"MOLECULE": "COc1ccc(-c2n[nH]cc2-c2ccc3c(c2)OCCO3)c(O)c1", "IC50": "> 50 µM (not active)"}
